- systemTested: T1, recombinant human CTLA4-his protein (Acro biosystems, Cat#CT4-H5229) (human, UniProt P16410 37-162)
- T1 construct: bought recombinant protein; not shown: his tag
- T1 sequence (looked up): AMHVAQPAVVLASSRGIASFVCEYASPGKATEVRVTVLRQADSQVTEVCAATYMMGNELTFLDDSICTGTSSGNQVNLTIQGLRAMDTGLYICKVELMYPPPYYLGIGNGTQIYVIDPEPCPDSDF
- testProtocol: BLI, Octet; antibody from cell supernatant on AHC sensor, CTLA4-his as analyte
attributeMeasured: koff (s⁻¹)
Just the number please, in s⁻¹, no unit attached.

Here is how some binders turned out for koff.
binder	experimentalValue
huC1D1-V12 (antibody, human IgG4 S228P, kappa, V domains shown, humanized IgG4/kappa; tested as 293F cell supernatant on Octet; also called hu CTLA4 C1D1-V12; huC1D1-VI2) VH: EVQLVESGGGLVQPGRSLRLSCTASGFTFSDNWMNWVRQAPGKGLEWVGQIRNKPYNYETYYSDSVKGRFTISRDDSKSIAYLQMNSLKTEDTAVYYCTGGMDYWGQGTTVTVSS VL: DIQMTQSPSSLSASVGDRVTITCGASEIIYGALNWYQQKPGKVPKLLIYGATNLADGVPSRFSGSGSGTDFTLTISSLQPEDVATYYCQKILSPPPWTFGGGTKVEIKR	0.000304
huD1D5-V5 (antibody, human IgG4 S228P, kappa, V domains shown, humanized IgG4/kappa; tested as 293F cell supernatant on Octet; also called hu CTLA4 DID5-V5) VH: EVQLVESGGGLVKPGGSLRLSCAASGFTFSDYGMAWVRQAPGKGPEWVAFISNLAYSVYYADTETGRFTISRDDAKNSLYLQMNSLRAEDTAVYYCARSGLPYAMDYWGQGTTVTVSS VL: DIQMTQSPSSLSASVGDRVTITCRASQDISNYLNWYQQKPGKVPKLLIYYISRLHSGVPSRFSGSGSGTDFTLTISSLQPEDVATYFCQQGRMLPWTFGGGTKVEIKR	0.00018
huD1D5-V11 (antibody, human IgG4 S228P, kappa, V domains shown, humanized IgG4/kappa; tested as 293F cell supernatant on Octet; also called hu CTLA4 D1D5-V11) VH: EVQLVESGGGLVKPGGSLRLSCAASGFTFSDYGMAWVRQAPGKGLEWVAFISNLAYSVYYADTETGRFTISRDDAKNSLYLQMNSLRAEDTAVYYCARSGLPYAMDYWGQGTTVTVSS VL: DIQMTQSPSSLSASVGDRVTITCRASQDISNYLNWYQQKPGKVPKLLIYYISRLHSGVPSRFSGSGSGTDFTLTISSLQPEDVATYYCQQGRMLPWTFGGGTKVEIKR	0.000538
huD1D5-V2 (antibody, human IgG4 S228P, kappa, V domains shown, humanized IgG4/kappa; tested as 293F cell supernatant on Octet; also called hu CTLA4 D1D5-V2) VH: EVQLVESGGGLVKPGGSLRLSCAASGFTFSDYGMAWVRQAPGKGLEWVAFISNLAYSVYYADTETGRFTISRDNAKNSLYLQMNSLRAEDTAVYYCARSGLPYAMDYWGQGTTVTVSS VL: DIQMTQSPSSLSASVGDRVTITCRASQDISNYLNWYQQKPGKTVKLLIYYISRLHSGVPSRFSGSGSGTDFTLTISSLQPEDVATYFCQQGRMLPWTFGGGTKVEIKR	6.25e-05

Input huD1D5-V10 (antibody, human IgG4 S228P, kappa, V domains shown, humanized IgG4/kappa; tested as 293F cell supernatant on Octet; also called hu CTLA4 D1D5-V10) VH: EVQLVESGGGLVKPGGSLRLSCAASGFTFSDYGMAWVRQAPGKGLEWVAFISNLAYSVYYADTETGRFTISRDNAKNSLYLQMNSLRAEDTAVYYCARSGLPYAMDYWGQGTTVTVSS VL: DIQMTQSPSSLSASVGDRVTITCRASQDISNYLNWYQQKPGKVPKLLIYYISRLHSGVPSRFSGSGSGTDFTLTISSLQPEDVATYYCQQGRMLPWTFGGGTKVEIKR . Output koff: 0.00163
